Target System: HyNaC2/3/5 (Hydra vulgaris (Hydra magnipapillata), UniProt A8DZR6+A8DZR7+D3UD58)
Assay Protocol: Inhibition of HyNaC2/3/5 currents in Xenopus oocytes (TEVC)
Type: cell-based
Assay Context: HyNaC2/3/5
Experimental Endpoint: IC50 (nM)
// note: answer is a bare numeric in nM

*Q* Please report the measured IC50 for N=C(N)c1ccc(/N=N/Nc2ccc(C(=N)N)cc2)cc1 [diminazene] tested on HyNaC2/3/5 (Hydra vulgaris (Hydra magnipapillata), UniProt A8DZR6+A8DZR7+D3UD58).
*A* 450

----------
Target System: HyNaC2/4/6 (Hydra vulgaris (Hydra magnipapillata), UniProt A0A0A0MP54+A8DZR6+A8DZR8)
Sequence (A8DZR8 entry or part of it): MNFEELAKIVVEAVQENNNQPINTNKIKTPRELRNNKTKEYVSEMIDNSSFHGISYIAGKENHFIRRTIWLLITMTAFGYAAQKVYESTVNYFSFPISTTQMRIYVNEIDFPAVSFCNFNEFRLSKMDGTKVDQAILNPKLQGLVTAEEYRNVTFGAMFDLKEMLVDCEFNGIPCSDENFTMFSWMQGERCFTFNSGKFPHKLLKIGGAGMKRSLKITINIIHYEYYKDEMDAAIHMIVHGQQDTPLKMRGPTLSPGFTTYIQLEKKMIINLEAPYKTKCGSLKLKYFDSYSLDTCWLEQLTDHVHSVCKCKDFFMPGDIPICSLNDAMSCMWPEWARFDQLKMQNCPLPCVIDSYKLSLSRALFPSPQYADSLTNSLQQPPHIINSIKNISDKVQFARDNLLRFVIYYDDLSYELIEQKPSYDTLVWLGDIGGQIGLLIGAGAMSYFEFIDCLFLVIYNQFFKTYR
Sequence (A0A0A0MP54 entry or part of it): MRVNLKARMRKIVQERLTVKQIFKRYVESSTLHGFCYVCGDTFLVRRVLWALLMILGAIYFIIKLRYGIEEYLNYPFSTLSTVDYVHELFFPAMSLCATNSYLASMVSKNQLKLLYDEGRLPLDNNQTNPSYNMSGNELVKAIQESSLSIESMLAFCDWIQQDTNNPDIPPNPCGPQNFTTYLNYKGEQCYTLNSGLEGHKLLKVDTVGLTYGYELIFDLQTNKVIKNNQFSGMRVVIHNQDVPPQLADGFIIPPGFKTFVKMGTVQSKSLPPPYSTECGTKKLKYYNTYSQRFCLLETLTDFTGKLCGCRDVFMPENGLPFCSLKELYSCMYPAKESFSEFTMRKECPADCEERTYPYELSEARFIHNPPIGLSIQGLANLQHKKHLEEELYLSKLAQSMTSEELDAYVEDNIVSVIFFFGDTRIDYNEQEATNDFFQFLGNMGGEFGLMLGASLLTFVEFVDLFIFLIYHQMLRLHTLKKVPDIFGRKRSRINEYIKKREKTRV
Sequence (A8DZR6 entry or part of it): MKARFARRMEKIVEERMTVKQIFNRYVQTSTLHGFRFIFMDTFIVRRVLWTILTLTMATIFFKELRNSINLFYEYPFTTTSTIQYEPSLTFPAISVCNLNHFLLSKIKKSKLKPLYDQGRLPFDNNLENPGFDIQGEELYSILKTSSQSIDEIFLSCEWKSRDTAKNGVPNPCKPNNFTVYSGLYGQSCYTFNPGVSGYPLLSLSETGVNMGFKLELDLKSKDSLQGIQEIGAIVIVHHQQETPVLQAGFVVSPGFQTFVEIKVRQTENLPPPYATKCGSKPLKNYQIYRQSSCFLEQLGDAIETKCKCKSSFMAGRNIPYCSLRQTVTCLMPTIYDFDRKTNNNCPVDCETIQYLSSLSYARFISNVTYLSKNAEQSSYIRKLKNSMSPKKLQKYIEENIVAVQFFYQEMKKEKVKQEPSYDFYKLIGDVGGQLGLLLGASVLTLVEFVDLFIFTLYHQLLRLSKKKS
Assay Protocol: Inhibition of HyNaC2/4/6 currents in Xenopus oocytes (TEVC)
Assay Context: HyNaC2/4/6
Experimental Endpoint: pIC50
Schema: pIC50 number; meaning minus log10 of the concentration expressed in molar units.

*Q* Identify pIC50 associated with the compound N=C(N)c1ccc(/N=N/Nc2ccc(C(=N)N)cc2)cc1 [diminazene]
*A* 7.30

----------
Target System: HyNaC2/10/7 (Hydra vulgaris (Hydra magnipapillata), UniProt A0A0A0MP61+A0A0A0MP73+A8DZR6)
Sequence (A0A0A0MP61 entry or part of it): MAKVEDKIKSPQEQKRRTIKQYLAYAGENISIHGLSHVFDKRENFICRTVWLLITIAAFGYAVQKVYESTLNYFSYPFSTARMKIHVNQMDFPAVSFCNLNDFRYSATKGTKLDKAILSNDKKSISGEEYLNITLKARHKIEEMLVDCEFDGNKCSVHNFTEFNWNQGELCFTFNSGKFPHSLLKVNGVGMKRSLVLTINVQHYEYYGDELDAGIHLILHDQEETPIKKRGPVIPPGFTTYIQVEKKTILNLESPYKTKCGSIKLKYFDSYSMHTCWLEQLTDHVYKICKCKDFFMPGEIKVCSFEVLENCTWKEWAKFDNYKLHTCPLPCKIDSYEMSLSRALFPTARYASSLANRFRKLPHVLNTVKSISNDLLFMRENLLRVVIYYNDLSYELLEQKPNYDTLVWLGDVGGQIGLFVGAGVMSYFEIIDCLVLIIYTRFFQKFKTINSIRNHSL
Sequence (A0A0A0MP73 entry or part of it): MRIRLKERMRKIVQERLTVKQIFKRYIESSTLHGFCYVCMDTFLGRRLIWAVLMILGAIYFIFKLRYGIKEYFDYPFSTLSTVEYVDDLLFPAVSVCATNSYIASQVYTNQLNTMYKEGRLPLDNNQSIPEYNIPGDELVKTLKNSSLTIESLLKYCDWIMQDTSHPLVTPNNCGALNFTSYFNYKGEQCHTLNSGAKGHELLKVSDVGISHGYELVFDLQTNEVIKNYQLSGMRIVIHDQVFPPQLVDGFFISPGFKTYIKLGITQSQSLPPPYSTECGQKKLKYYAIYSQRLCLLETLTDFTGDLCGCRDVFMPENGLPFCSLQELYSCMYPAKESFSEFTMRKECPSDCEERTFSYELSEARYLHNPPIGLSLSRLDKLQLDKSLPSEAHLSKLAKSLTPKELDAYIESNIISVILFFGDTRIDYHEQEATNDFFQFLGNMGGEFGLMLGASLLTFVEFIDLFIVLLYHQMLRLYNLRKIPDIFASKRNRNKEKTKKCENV
Sequence (A8DZR6 entry or part of it): as the sequence (A8DZR6 entry or part of it) above
Assay Protocol: Inhibition of HyNaC2/10/7 currents in Xenopus oocytes (TEVC)
Assay Context: HyNaC2/10/7
Experimental Endpoint: IC50
Record the result as a number with its unit.

*Q* Identify IC50 associated with the molecule N=C(N)c1ccc(/N=N/Nc2ccc(C(=N)N)cc2)cc1 [diminazene]
*A* 5.4 µM

----------
Target System: HyNaC2/11/5 (Hydra vulgaris (Hydra magnipapillata), UniProt A0A0A0MP55+A8DZR6+D3UD58)
Sequence (A0A0A0MP55 entry or part of it): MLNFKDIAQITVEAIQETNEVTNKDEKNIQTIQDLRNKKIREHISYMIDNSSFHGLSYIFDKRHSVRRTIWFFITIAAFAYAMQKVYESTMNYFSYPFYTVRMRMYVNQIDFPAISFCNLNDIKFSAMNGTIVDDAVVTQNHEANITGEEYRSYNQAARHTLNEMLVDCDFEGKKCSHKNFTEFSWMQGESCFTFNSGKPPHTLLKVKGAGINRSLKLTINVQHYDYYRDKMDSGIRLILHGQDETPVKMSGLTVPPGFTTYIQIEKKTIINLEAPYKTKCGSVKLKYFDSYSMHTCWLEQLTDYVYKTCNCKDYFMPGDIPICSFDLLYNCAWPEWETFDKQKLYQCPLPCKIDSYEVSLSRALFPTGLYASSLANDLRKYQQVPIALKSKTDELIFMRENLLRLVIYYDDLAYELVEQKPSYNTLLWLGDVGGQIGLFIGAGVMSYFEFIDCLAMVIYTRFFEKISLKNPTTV
Sequence (A8DZR6 entry or part of it): as the sequence (A8DZR6 entry or part of it) above
Sequence (D3UD58 entry or part of it): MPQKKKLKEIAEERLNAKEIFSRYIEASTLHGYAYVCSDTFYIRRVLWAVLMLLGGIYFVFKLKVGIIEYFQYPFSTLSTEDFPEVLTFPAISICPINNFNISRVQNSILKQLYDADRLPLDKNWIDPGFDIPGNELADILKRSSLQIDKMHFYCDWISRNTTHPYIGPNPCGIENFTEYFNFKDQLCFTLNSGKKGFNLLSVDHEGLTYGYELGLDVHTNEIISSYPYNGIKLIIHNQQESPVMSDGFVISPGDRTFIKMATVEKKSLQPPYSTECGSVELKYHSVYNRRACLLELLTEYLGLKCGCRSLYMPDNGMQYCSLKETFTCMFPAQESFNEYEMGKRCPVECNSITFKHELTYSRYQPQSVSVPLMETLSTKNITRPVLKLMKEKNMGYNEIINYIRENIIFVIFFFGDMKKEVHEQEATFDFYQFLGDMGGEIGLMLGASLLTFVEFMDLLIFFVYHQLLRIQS
Assay Protocol: Inhibition of HyNaC2/11/5 currents in Xenopus oocytes (TEVC)
Assay Context: HyNaC2/11/5
Experimental Endpoint: IC50 (µM)
// note: answer is a bare numeric in µM

*Q* Identify IC50 associated with the compound "N=C(N)c1ccc(/N=N/Nc2ccc(C(=N)N)cc2)cc1"
*A* 31.4

----------
Target System: HyNaC2/3/6 (Hydra vulgaris (Hydra magnipapillata), UniProt A0A0A0MP54+A8DZR6+A8DZR7)
Sequence (A0A0A0MP54 entry or part of it): as the sequence (A0A0A0MP54 entry or part of it) above
Sequence (A8DZR7 entry or part of it): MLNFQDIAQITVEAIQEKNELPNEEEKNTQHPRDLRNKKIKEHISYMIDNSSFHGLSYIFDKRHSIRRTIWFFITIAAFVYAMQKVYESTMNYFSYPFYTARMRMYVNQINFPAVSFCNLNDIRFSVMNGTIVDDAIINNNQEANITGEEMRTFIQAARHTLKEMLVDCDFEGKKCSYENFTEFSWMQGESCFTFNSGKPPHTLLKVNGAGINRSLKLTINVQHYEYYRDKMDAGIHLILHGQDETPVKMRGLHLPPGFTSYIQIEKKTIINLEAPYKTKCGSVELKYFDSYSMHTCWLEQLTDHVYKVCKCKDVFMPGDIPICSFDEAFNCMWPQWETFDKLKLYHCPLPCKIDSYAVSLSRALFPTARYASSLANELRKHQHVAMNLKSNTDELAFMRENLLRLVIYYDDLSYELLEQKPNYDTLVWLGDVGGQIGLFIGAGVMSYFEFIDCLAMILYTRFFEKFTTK
Sequence (A8DZR6 entry or part of it): as the sequence (A8DZR6 entry or part of it) above
Assay Protocol: Inhibition of HyNaC2/3/6 currents in Xenopus oocytes (TEVC)
Assay Context: HyNaC2/3/6
Experimental Endpoint: pIC50
Schema: pIC50 number; meaning minus log10 of the concentration expressed in molar units.

*Q* Please report the measured pIC50 for "N=C(N)c1ccc(/N=N/Nc2ccc(C(=N)N)cc2)cc1" tested on HyNaC2/3/6 (Hydra vulgaris (Hydra magnipapillata), UniProt A0A0A0MP54+A8DZR6+A8DZR7).
*A* 7.05
